Each record here notes measured TGI.
- Tested on: SK-MEL-5 melanoma
- PROTOCOL_DESCRIPTION: NCI tumour cell line growth inhibition, 48 h
Write it as a number; the unit µM goes unstated.

Find the recorded TGI belonging to `Cc1cc(NCCCCNc2ccnc3cc(Cl)ccc23)nc(Nc2ccc(C(=O)N3CCCCC3)cc2)n1` and report it. 3.07

Find the recorded TGI belonging to CCOC(=O)C(NC(=O)c1ccccc1)(N1CCN(c2cc3c(cc2F)c(=O)c(C(=O)O)cn3C2CC2)CC1)C(F)(F)F (stereo not given) and report it. 29.4

* * *

- Tested on: SF-295 CNS
- PROTOCOL_DESCRIPTION: NCI tumour cell line growth inhibition, 48 h; in the data active = GI50 below about 0.43 µM; inactive = the rest
Parameter call: string, one of true for active, false for inactive

The examples below pair each entry with its known result.
COMPOUND: Clc1nc(Cl)c2ncn(Cc3ccccc3Cn3cnc4c(Cl)nc(Cl)nc43)c2n1
GROUP: false

COMPOUND: O=C(N[C@@H](Cc1coc2ccccc12)B(O)O)[C@@H]1C[C@H]2CC[C@@H]1O2
GROUP: false

COMPOUND: COc1ccc(-c2ccc(NNC(=O)c3ccc(F)cc3)nn2)cc1OC
GROUP: false

COMPOUND: O=C1/C(=C/N2N=C(c3ccc4ccccc4c3)CC2c2ccccc2O)SC(=S)N1c1cccnc1 (stereo unspecified)
GROUP: false

Returns: the outcome recorded for CNC(C)[C@H]1CCC2C3CC=C4C(=O)[C@@H](NC(=O)C=C(C)C)CC[C@]4(C)C3CC[C@@]21C (stereo partly specified) in this assay. false

Returns: the outcome recorded for `Oc1ccc(N=Nc2nccs2)c(O)c1` in this assay. false

Returns: the outcome recorded for `NCCCOc1cc(Cl)ccc1NC(=O)c1cc2ccccc2cc1OCCCN` in this assay. false

Returns: the outcome recorded for NC(=O)CNc1ccc([As]=[As]c2ccc(NCC(N)=O)cc2)cc1 (stereo unspecified) in this assay. false

Returns: the outcome recorded for `COC(=O)[C@]12CC[C@@H](C)[C@H](C)[C@@H]1C1=CC[C@@H]3[C@@]4(C)C(C=O)=C[C@@](C)(COC(=O)c5ccco5)[C@@H]4[C@H](O)C[C@@]3(C)[C@]1(C)CC2` in this assay. false

Returns: the outcome recorded for `COc1cc2c3c(n(CCCN(C)CCO)c(=O)c2cc1OC)-c1cc2c(cc1C3=O)OCO2` in this assay. false

Returns: the outcome recorded for `Cc1ccc2[c](c1)[Sn]([c]1ccccc1)([c]1ccccc1)[c]1cc(C)ccc1N2C` in this assay. false

Returns: the outcome recorded for `Cc1noc2c1-c1ccccc1C(c1ccc(Cl)cc1)=N[C@H]2CC(N)=O` in this assay. false

Returns: the outcome recorded for `Oc1ccc(Oc2cnc3ccccc3n2)cc1` in this assay. false

Returns: the outcome recorded for `COc1ccc(-c2cc(Nc3ccnc(N4CCOCC4)n3)on2)cc1` in this assay. true

Returns: the outcome recorded for `NC(N)=N/N=C(\N=Nc1ccccc1)c1ccc(Cl)cc1` in this assay. false

Returns: the outcome recorded for COc1ccc2c(c1)C(C)Cc1c(ncnc1-n1cnc3ccccc31)N2C (stereo unspecified) in this assay. true
